Measured Ki, listed per entry.
# System: GCN2 kinase (Homo sapiens, UniProt Q9P2K8)
# Sequence (Q9P2K8 whole entry): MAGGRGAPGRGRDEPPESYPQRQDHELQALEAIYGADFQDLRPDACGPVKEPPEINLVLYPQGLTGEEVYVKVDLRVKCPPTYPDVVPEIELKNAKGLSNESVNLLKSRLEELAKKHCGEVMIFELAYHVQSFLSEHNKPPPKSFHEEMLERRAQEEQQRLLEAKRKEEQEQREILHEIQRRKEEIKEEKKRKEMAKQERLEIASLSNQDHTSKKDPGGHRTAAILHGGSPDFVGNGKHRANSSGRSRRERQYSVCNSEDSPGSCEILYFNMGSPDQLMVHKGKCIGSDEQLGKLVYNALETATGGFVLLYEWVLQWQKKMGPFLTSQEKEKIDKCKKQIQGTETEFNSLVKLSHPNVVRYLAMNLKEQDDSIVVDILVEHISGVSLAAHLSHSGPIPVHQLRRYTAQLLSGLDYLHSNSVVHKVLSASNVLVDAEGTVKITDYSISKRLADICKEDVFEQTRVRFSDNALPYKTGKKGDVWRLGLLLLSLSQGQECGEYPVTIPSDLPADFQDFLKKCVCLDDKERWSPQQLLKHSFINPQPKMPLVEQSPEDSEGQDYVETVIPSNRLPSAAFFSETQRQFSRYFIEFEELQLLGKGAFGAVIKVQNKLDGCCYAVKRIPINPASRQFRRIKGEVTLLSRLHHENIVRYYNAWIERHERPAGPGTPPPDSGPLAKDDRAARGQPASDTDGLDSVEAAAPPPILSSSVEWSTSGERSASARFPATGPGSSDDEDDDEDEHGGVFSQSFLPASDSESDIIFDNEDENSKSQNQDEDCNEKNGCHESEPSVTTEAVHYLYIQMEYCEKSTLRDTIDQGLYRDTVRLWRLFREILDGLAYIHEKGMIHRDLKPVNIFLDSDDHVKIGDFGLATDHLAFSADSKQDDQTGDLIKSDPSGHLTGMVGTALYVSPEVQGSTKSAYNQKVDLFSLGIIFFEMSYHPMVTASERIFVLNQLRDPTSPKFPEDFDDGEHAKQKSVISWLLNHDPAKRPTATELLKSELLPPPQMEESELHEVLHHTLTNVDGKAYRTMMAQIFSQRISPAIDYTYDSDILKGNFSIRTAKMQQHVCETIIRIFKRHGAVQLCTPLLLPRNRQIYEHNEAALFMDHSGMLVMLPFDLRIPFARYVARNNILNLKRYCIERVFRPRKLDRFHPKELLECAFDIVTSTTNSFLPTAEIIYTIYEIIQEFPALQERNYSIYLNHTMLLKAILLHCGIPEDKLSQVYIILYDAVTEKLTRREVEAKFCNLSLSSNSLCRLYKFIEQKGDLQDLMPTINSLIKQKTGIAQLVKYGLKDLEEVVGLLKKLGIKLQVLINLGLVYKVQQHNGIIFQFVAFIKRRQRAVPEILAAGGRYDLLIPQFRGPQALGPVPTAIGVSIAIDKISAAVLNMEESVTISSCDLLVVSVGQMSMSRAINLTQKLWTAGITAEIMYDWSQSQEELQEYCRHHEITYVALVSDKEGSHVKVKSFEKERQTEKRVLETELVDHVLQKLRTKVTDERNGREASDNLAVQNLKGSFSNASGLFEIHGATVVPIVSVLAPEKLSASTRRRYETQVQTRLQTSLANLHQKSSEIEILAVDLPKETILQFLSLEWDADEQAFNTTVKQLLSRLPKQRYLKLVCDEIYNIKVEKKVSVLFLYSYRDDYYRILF
# Procedure Details: GCN2 enzyme inhibition assay (Transcreener ADP2 fluorescence polarization)
# Assay type: biochemical
# Cond: compounds of Formula II; 280 μM ATP, 4 nM GCN2 kinase

Completed entries (count: 3):
- Compound: "O=S1(=O)CCN(c2cc(-c3cnc4ccc(C(F)F)nn34)ccn2)CC1"
  Ki: "10 to 1000 nM"
- Compound: "CC1C(CNS(C)(=O)=O)CCCN1c1cc(-c2cnc3ccc(C(F)F)nn23)ncn1 (single isomer, unassigned) [II-263]"
  Ki: "10 to 1000 nM"
- Compound: "NC(=O)NCC1CCCN(c2cc(-c3cnc4ccc(C(F)F)nn34)ncn2)C1 (stereo not shown)"
  Ki: "10 to 1000 nM"

Prompt: For the compound CNS(=O)(=O)C1CCCN(c2cc(-c3cnc4ccc(C(F)F)nn34)ncn2)C1 (stereo not shown) , give its measured Ki value.
Completion: 10 to 1000 nM

Prompt: For the compound CS(=O)(=O)NCC1CC(O)CN(c2cc(-c3cnc4ccc(C(F)F)nn34)ncn2)C1 (stereo not shown) [II-12] , give its measured Ki value.
Completion: 10 to 1000 nM

Prompt: For the compound CC1CC(C(N)=O)C(C)N(c2cc(-c3cnc4ccc(C(F)(F)F)nn34)ncn2)C1 (racemic) [II-720] , give its measured Ki value.
Completion: 10 to 1000 nM

Prompt: For the compound [2H]C([2H])([2H])N1CCN(c2cc(-c3cnc4ccc(C(F)F)nn34)ncn2)C(C)C1CNS(C)(=O)=O (stereo not shown) [II-523] , give its measured Ki value.
Completion: < 10 nM

Prompt: For the compound CS(=O)(=O)NCC1CN(c2cc(-c3cnc4ccc(C(F)F)nn34)ccn2)CCN1C1COC1 (stereo not shown) , give its measured Ki value.
Completion: 10 to 1000 nM

Prompt: For the compound NS(=O)(=O)NCC1CN(c2cc(-c3cnc4ccc(C(F)F)nn34)ncn2)CCO1 (stereo not shown) , give its measured Ki value.
Completion: < 10 nM

Prompt: For the compound CC1=C(F)C(CNS(C)(=O)=O)CN(c2cc(-c3cnc4ccc(C(F)F)nn34)ncn2)C1 (stereo not shown) , give its measured Ki value.
Completion: < 10 nM

Prompt: For the compound FC(F)(F)c1ccc2ncc(-c3cc(-c4cnn(C5CCOCC5)c4)ncn3)n2n1 , give its measured Ki value.
Completion: > 1000 nM

Prompt: For the compound CN(C)C1CN(c2cc(-c3cnc4ccc(C(F)F)nn34)ncn2)CC(CNS(C)(=O)=O)C1(F)F (stereo not shown) [II-260] , give its measured Ki value.
Completion: 10 to 1000 nM

Prompt: For the compound CC1CN(c2cc(-c3cnc4ccc(C(F)F)nn34)ncn2)CC1CNS(C)(=O)=O (stereo not shown) [II-18] , give its measured Ki value.
Completion: < 10 nM

Prompt: For the compound C[C@H]1C[C@@H](CS(C)(=N)=O)[C@@H](C)N(c2cc(-c3cnc4ccc(C(F)F)nn34)ncn2)C1 (stereo partly shown) [II-604] , give its measured Ki value.
Completion: 10 to 1000 nM

Prompt: For the compound CC1CC(CNS(C)(=O)=O)CN(c2cc(-c3cnc4ccc(C(F)F)nn34)ncn2)C1 (single isomer, unassigned) [II-437] , give its measured Ki value.
Completion: < 10 nM

Prompt: For the compound CS(=O)(=O)NC[C@H]1CN(c2cc(-c3cnc4ccc(C(F)F)nn34)ncn2)C[C@@H](C(F)(F)F)O1 , give its measured Ki value.
Completion: 10 to 1000 nM
